Parameter: CC-v2. Scope: all listed entries.
assay.system: Human ALDH3A1 (Homo sapiens, UniProt P30838)
Sequence (P30838 whole entry): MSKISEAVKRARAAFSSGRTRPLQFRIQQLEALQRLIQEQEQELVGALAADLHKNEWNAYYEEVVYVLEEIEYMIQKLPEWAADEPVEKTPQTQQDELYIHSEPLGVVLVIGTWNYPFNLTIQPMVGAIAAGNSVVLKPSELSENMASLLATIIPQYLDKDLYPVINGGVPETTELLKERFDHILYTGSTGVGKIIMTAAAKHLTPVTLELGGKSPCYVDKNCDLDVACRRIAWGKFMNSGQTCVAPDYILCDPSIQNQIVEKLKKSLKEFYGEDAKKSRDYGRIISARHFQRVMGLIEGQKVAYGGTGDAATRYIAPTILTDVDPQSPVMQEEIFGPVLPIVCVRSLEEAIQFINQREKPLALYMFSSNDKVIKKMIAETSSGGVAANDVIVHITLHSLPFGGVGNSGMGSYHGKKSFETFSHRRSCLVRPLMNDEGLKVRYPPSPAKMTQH
test.method.notes: ALDH3A1 biochemical assay (benzaldehyde/NADP+, diaphorase-resazurin readout, 1,536-well)
assay.setup: Table S5, biochemical curve class
measured.attribute: CC-v2

molecule: Cc1ccc(CNC(=O)c2csc(N3CCN(c4cccc(C(F)(F)F)c4)CC3)n2)cc1F [NCGC01407934-01]
experimental.value: -1.1
--
molecule: CC(=O)c1cccc(CNC(=O)c2csc(N3CCN(c4cccc(C(F)(F)F)c4)CC3)n2)c1 [NCGC01397289-01]
experimental.value: -1.1
--
molecule: O=C(NCc1ccc2c(c1)C(=O)NCC2)c1csc(N2CCN(c3cccc(C(F)(F)F)c3)CC2)n1 [NCGC01397286-01]
experimental.value: -1.2
--
molecule: N#CSc1ccc(NC(=O)c2csc(N3CCN(c4cccc(C(F)(F)F)c4)CC3)n2)c(F)c1 [NCGC01407980-01]
experimental.value: -1.1
--
molecule: O=C(NCc1cccc(Cl)c1)c1csc(N2CCN(c3cccc(C(F)(F)F)c3)CC2)n1 [NCGC01407982-01]
experimental.value: -1.1
--
molecule: COc1cc(CNC(=O)c2csc(N3CCN(c4cccc(C(F)(F)F)c4)CC3)n2)ccc1F [NCGC01396486-01]
experimental.value: -1.1
--
molecule: O=C(NC1CC1)c1ccc(CNC(=O)c2csc(N3CCN(c4cccc(C(F)(F)F)c4)CC3)n2)cc1 [NCGC01397384-01]
experimental.value: -1.2
